# SUBJECT_OF_TEST: VLP2 (virus-like particles, capsid protein particles of AAV serotype 2) (AAV serotype 2 (AAV2)) (UniProt P03135)
# Sequence (P03135 whole entry): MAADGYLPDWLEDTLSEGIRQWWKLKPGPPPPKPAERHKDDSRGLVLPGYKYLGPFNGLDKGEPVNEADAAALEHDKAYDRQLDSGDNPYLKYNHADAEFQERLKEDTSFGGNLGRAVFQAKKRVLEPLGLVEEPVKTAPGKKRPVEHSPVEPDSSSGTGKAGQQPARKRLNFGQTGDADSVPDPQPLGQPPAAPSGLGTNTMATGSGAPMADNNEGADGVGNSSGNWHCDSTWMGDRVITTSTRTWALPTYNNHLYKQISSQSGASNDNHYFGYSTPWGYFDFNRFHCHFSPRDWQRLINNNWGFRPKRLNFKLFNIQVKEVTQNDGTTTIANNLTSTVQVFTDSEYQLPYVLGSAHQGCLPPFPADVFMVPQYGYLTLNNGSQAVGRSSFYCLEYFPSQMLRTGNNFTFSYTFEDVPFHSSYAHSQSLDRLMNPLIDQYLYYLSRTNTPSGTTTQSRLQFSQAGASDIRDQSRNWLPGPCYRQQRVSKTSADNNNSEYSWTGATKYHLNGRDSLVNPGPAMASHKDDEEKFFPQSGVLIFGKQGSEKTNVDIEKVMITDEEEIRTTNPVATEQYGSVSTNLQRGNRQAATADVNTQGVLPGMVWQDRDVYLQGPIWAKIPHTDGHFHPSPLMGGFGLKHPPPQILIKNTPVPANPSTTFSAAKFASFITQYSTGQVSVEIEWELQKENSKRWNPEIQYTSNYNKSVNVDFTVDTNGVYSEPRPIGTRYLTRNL
# ASSAY_DETAILS: ELISA on immobilised VLP2 (purified protein, 5 µg/mL); A450 after 1:1 1 M NaOH with 1 mM CaCl2, 30°C, 60 min divided by A450 at 0 time
METRIC: Remaining activity [%] (%)
Value expressed in %; do not type the unit.

State, in one line, measured Remaining activity [%] of AVR29d (AVR25c with I366F, V394A, K455R, V499I) (receptor) MGSAGESDQITLPKHEAQLKVYVLLVPPKGEASTYDWQLITHPRDYSGEMEGEHSQFLKLSNLTPGLYEYRAVVEGQNAHSEGYANVTVEPGPRKNRPPIAIVSPQFQEISLPTTSAVIDGSQSTDDDKIVQYHWEELKGPLREERISEDTPILKLSNLVPGNYTFRLTVVDTDGATDSTTADLTVNKAIDHHHHHH
1.06

From: patent EP4717706A1
